biological target: Protein tyrosine phosphatase type IVA 3 (Homo sapiens)
Sequence (O75365 whole entry): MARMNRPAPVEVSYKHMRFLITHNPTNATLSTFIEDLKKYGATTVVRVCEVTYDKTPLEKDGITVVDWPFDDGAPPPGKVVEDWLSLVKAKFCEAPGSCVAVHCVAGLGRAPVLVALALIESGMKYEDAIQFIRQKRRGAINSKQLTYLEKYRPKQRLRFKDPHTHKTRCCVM
pIC50: −log10 of the molar value.

| compound | pIC50 |
| --- | --- |
| N=C(N)c1ccc(OCCCCCOc2ccc(C(=N)N)cc2)cc1 [PENTAMIDINE] | 6.52 |
